Values compiled from the METLIN SMRT retention time set (Domingo-Almenara et al. 2019).

# Experimental details: gradient 5% acetonitrile 3 min, to 50% in 2 min, to 85% in 15 min, held 3 min, 100 µL/min
# Condition info: column: Zorbax Extend-C18 2.1 x 50 mm; eluents: water / acetonitrile, 0.1% formic acid
Assay endpoint: RP-LC retention time (s)

> print(dat)
                                    molecule        assay.endpoint  numeric.value
 1  Cc1ccc(N2CCN(Cc3nc4nc(C)cc(N5CCCC5)n4n3)CC2)cc1  RP-LC retention time            639
 2  CS(=O)(=O)Nc1ccc(C2(C(=O)NCc3ccccn3)CCCCC2)cc1  RP-LC retention time            620
 3  CCN(CC)C(=O)C1CCN(c2nc3ccc(-c4cccs4)nc3s2)CC1  RP-LC retention time            992
 4  Cc1ccccc1NC(=O)N1CCN(c2ccc(=O)n(-c3ccccc3)n2)CC1  RP-LC retention time            744
 5  Cc1ccc(NC(=O)N2CCC(c3nc(CCNC(=O)C(C)C)cs3)CC2)cc1  RP-LC retention time            750
 6           COCCn1cc(CC(=O)NC(C)C)c2cccnc21  RP-LC retention time            601
 7     CN(C)CCN1C(=O)c2cccc3cc(N)cc(c23)C1=O  RP-LC retention time            626
 8  CCCN1C(=O)c2c(C(=O)NCc3cccc(C)c3)ncn2CC1(C)C(=O)NCCC(C)C (centres undefined)  RP-LC retention time            879
 9     CCCNC(=O)c1nc(Nc2ccc(F)cc2)c2ccccc2n1  RP-LC retention time            746
10  CS(=O)(=O)Nc1cccc(NC(=O)c2ccc(N3CCOCC3)nn2)c1  RP-LC retention time            633

(P) CS(=O)(=O)N1CCC(OC2CCN(C(=O)c3ccccc3)CC2)CC1
(Q) Cc1sc(C)c(S(=O)(=O)N2CCN(c3ccccc3)CC2)c1-c1cc(C(F)(F)F)on1
## Input Which record shows the lower RP-LC retention time: the first, P , or the second, Q ? // caller expects the label of the chosen entry
## Output P
(P: 709 s, Q: 1300 s)

---

# Experimental details: gradient 5% acetonitrile 3 min, to 50% in 2 min, to 85% in 15 min, held 3 min, 100 µL/min
# Condition info: column: Zorbax Extend-C18 2.1 x 50 mm; eluents: water / acetonitrile, 0.1% formic acid
Assay endpoint: RP-LC retention time (s)

Here are 3 compounds together with their reported answers.
> print(dat)
                                   compound        assay.endpoint  numeric.value
1  CCCN1C(=O)COc2ccc(-c3noc(-c4cncc(Br)c4)n3)cc21  RP-LC retention time           1160
2  COC(=O)C1=CN(C2CC2)c2cc(N3CCCCC3)c(F)cc2S1(=O)=O  RP-LC retention time            932
3  Cc1nn(C)c(C)c1S(=O)(=O)N1CCN(C(=O)C(C)Oc2ccccc2)CC1 (stereo not drawn)  RP-LC retention time            761

(P) Cc1ccc(CNC(=O)c2nnc(-c3ccc(S(=O)(=O)N(C)C)cc3)o2)cc1C
(Q) O=C(NCCN1CCCCC1)c1csc(-c2ccnc(N3CCOCC3)c2)n1
## Input Of the two listed items, P and Q , which carries the larger RP-LC retention time figure? // caller expects the label of the chosen entry
## Output P
(P: 947 s, Q: 566 s)

(I) CCN1c2cc(C(=O)Nc3ccc4c(c3)OCCO4)ccc2C(=O)N2CCCCC21 (stereo not drawn)
(II) CCN1CCN(CCCNC(=O)c2ccc(CS(=O)c3ccc(Cl)cc3)o2)CC1 (stereo not drawn)
(III) Cc1cc(C)c(S(=O)(=O)N2CCc3nc(-c4ccccc4)ncc3C2)cc1C
## Input Rank descending by RP-LC retention time. Output spec: labels arranged per the requested ranking.
## Output III, I, II

(a) CC(C)Cn1cc(S(=O)(=O)Nc2ccc(F)c(F)c2)c2cccnc21
(b) COc1ccc(-n2nnc(C(=O)O)c2-c2ccccn2)cc1
## Input Of the two listed items, a and b , which carries the larger RP-LC retention time figure? // caller expects the label of the chosen entry
## Output a

---

# Experimental details: gradient 5% acetonitrile 3 min, to 50% in 2 min, to 85% in 15 min, held 3 min, 100 µL/min
# Condition info: column: Zorbax Extend-C18 2.1 x 50 mm; eluents: water / acetonitrile, 0.1% formic acid
Assay endpoint: RP-LC retention time (s)

> print(dat)
                                   compound        assay.endpoint  unit.info  numeric.value
1  COc1ccc(NC(=O)C2CCN(S(C)(=O)=O)c3ccccc3O2)cc1Cl (stereo not given)  RP-LC retention time          s            921
2  Cc1cc(C)n(CC(=O)N2CCC(c3nc(-c4ccncc4)no3)C2)n1 (stereo not given)  RP-LC retention time          s            839
3   CCCCN(C)c1nc(-c2ccc(Cl)cc2Cl)nc2ccccc12  RP-LC retention time          s            893
4  Cc1ccc(-c2noc(Cc3nnc(-c4cc(C)cc(C)c4)o3)n2)cc1  RP-LC retention time          s           1190
5  Cc1cc2[nH]c(C(=O)Nc3cc(F)ccc3C)c(CN3CCOCC3)c2s1  RP-LC retention time          s            678

(a) COc1ccc(C2C(C(=O)NCc3ccccn3)c3cc(OC)c(OC)cc3C(=O)N2C)cc1OC (stereo not given)
(b) Cc1cccc(CNC(=O)C2CCN(S(=O)(=O)c3ccc4c(c3)sc(=O)n4C(C)C)CC2)c1
## Input Of the two listed items, a and b , which carries the larger RP-LC retention time figure? // caller expects the label of the chosen entry
## Output b

---

# Experimental details: gradient 5% acetonitrile 3 min, to 50% in 2 min, to 85% in 15 min, held 3 min, 100 µL/min
# Condition info: column: Zorbax Extend-C18 2.1 x 50 mm; eluents: water / acetonitrile, 0.1% formic acid
Assay endpoint: RP-LC retention time (s)

> print(dat)
                     compound  numeric.value
1  O=C(Nc1cccc(Cl)c1)c1ccccn1           1010

(I) CCOC(=O)c1c(C)oc2ncnc(Nc3cc(Cl)ccc3OC)c12
(II) Cc1noc(-c2cccc(OC3CN(C(=O)C4CCOC4)C3)c2)n1 (stereo not drawn)
## Input Which record shows the lower RP-LC retention time: the first, I , or the second, II ? // caller expects the label of the chosen entry
## Output II
(II: 694 s, I: 1360 s)

---

# Experimental details: gradient 5% acetonitrile 3 min, to 50% in 2 min, to 85% in 15 min, held 3 min, 100 µL/min
# Condition info: column: Zorbax Extend-C18 2.1 x 50 mm; eluents: water / acetonitrile, 0.1% formic acid
Assay endpoint: RP-LC retention time (s)

> print(dat)
                                   compound  numeric.value
1  O=C(Nc1nnc(SCc2nnc(-c3cccc(F)c3)o2)s1)c1ccccc1            887
2  Cc1nc(C)c(CCNS(=O)(=O)c2cc(C)c(C)cc2C)s1            695
3  CC(NC(=O)C1(c2ccc(NS(C)(=O)=O)cc2)CCCCC1)c1ccccc1 (stereo not drawn)            926

---

# Experimental details: gradient 5% acetonitrile 3 min, to 50% in 2 min, to 85% in 15 min, held 3 min, 100 µL/min
# Condition info: column: Zorbax Extend-C18 2.1 x 50 mm; eluents: water / acetonitrile, 0.1% formic acid
Assay endpoint: RP-LC retention time (s)

> print(dat)
                                   molecule  unit.info  numeric.value
1  CSc1cccc(NC(=O)C2CCCN(C(=O)c3cc(C)cc(C)c3)C2)c1 (configuration not stated)          s           1010
2  COc1cccc(-c2noc(Cn3c(=O)n(-c4cccc(OC)c4)c(=O)c4sccc43)n2)c1          s            970
3  CC1CCN(S(=O)(=O)c2cc(C(=O)N3CCN(c4ccc(F)cc4)CC3)n(C)c2)CC1          s           1010
4  COc1ccc(S(=O)(=O)N2CCC(c3nc(C(=O)N(C)C)c(C)o3)CC2)cc1Cl          s            806
5  COc1ccc(NC(=O)c2cc3c(s2)CN(C2CC2)C3)c(C)c1          s            783
6  CCn1c(=O)c(N2CCC(NC(=O)Nc3ccc(OC)c(OC)c3)CC2)nc2ccccc21          s            785
7  Cc1cc(OCC(=O)Nc2ccc(F)cc2Cl)nc(N2CCN(c3ccccc3)CC2)n1          s            976
